These entries and their values trace back to patent US20230381229A1.

Target: T1, TIGIT (human)
T1 chain: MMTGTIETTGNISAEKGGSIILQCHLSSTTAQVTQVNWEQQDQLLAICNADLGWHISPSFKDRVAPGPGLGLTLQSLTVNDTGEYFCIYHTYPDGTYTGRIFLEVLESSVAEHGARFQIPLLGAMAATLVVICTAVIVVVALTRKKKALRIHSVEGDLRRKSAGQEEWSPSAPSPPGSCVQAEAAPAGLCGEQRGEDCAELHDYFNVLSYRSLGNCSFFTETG
Test: cell-based or functional assay
measuredProperty: IL-2 luciferase reporter, Normalized Fold Change from CD155-ECD (fold)
Numbers only; they are read as fold.

Input line: For the binder shown here, variant CD155 IgV-Fc P18S, P34S, E51V, L79P, F91S, G111R (Fc fusion) WPPPGTGDVVVQAPTQVSGFLGDSVTLPCYLQVSNMEVTHVSQLTWARHGVSGSMAVFHQTQGPSYSESKRLEFVAARPGAELRNASLRMSGLRVEDEGNYTCLFVTFPQRSRSVDIWLRVLGSGGGGSEPKSSDKTHTCPPCPAPEAEGAPSVFLFPPKPKDTLMISRTPEVTCVVVDVSHEDPEVKFNWYVDGVEVHNAKTKPREEQYNSTYRVVSVLTVLHQDWLNGKEYKCKVSNKALPAPIEKTISKAKGQPREPQVYTLPPSRDELTKNQVSLTCLVKGFYPSDIAVEWESNGQPENNYKTTPPVLDSDGSFFLYSKLTVDKSRWQQGNVFSCSVMHEALHNHYTQKSLSLSPGK , give the reported IL-2 luciferase reporter, Normalized Fold Change from CD155-ECD.
Output line: 2.1
